Below is a list of entries, each paired with its recorded inhibition at 1 µM value.
Study target: AKT2 (Homo sapiens, UniProt P31751)
Sequence (P31751 whole entry): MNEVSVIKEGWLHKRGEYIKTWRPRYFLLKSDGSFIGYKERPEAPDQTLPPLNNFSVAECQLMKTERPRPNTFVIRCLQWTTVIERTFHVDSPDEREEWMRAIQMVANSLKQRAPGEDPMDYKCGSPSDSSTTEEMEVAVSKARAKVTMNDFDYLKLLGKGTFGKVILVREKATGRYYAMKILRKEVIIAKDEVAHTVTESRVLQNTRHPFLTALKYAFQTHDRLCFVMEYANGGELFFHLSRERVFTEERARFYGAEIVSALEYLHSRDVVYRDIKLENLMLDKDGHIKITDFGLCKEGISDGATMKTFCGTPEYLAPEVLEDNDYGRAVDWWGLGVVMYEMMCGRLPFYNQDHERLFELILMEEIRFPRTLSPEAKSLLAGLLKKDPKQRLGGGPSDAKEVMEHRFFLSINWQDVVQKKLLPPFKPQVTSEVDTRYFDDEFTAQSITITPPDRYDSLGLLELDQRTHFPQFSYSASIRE
Experiment: KINOMEscan competition binding
Condition label: read-out: %Inh AKT2
Give the value, in units of %, as a plain number.

# example entries with known answers
> print(dat)
                                   compound  endpoint.value
1  COc1cccc(OC)c1C(=O)Nc1cccc(-c2nn3ccccc3c2-c2ccnc(Nc3cccc(F)c3)n2)c1 [UNC10225310A]               0
2  Cn1cc(-c2cnc(N)c3c(-c4ccc5c(c4)CCN5C(=O)Cc4ccccc4)csc23)cn1 [UNC10225012A]               0
3  Cc1ccc(NC(=O)Nc2cccc(C(F)(F)F)c2)cc1 [UNC10225187A]               3
4  O=c1cc(N2CCOCC2)nc2n(Cc3cccc(Cl)c3Cl)c(C3CC3)nn12 [UNC10225469A]               0

Kindly review the next compound as well.
Identify inhibition at 1 µM associated with the compound CS(=O)(=O)Cc1ccc(Nc2nccc(-c3c(-c4cccc(NC(=O)C5CCCCC5)c4)nn4ncccc34)n2)cc1 [UNC10225159A]
4

----------
Study target: CDK5 (Homo sapiens, UniProt Q00535)
Sequence (Q00535 whole entry): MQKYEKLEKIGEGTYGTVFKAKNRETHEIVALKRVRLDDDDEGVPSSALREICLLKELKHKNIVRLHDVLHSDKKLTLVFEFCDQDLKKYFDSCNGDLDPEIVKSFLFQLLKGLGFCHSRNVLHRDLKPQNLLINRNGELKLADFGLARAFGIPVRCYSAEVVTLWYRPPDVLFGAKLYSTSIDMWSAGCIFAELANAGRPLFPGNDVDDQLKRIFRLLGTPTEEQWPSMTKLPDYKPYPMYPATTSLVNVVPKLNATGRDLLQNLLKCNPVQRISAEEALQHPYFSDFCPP
Experiment: KINOMEscan competition binding
Condition label: read-out: %Inh CDK5
Outcome label depends on inhibition at 1 µM relative to 7%: at/above gives 1, below gives -1.

# count of solved cases: 3
> print(dat)
                                   compound                         study.target  assigned.class
1  Cn1cc(-c2cnc(N)c3c(-c4ccc5c(c4)CCN5C(=O)Cc4ccccc4)csc23)cn1 [UNC10225012A]  CDK5 (Homo sapiens, UniProt Q00535)              -1
2  CS(=O)(=O)Cc1ccc(Nc2nccc(-c3c(-c4cccc(NC(=O)C5CCCCC5)c4)nn4ncccc34)n2)cc1 [UNC10225159A]  CDK5 (Homo sapiens, UniProt Q00535)              -1
3  Cc1ccc(NC(=O)Nc2cccc(C(F)(F)F)c2)cc1 [UNC10225187A]  CDK5 (Homo sapiens, UniProt Q00535)              -1

Confirm if inhibition at 1 µM reported for the compound COc1cccc(OC)c1C(=O)Nc1cccc(-c2nn3ccccc3c2-c2ccnc(Nc3cccc(F)c3)n2)c1 [UNC10225310A] is 7% or above.
1

----------
Study target: AKT1 (Homo sapiens, UniProt P31749)
Sequence (P31749 whole entry): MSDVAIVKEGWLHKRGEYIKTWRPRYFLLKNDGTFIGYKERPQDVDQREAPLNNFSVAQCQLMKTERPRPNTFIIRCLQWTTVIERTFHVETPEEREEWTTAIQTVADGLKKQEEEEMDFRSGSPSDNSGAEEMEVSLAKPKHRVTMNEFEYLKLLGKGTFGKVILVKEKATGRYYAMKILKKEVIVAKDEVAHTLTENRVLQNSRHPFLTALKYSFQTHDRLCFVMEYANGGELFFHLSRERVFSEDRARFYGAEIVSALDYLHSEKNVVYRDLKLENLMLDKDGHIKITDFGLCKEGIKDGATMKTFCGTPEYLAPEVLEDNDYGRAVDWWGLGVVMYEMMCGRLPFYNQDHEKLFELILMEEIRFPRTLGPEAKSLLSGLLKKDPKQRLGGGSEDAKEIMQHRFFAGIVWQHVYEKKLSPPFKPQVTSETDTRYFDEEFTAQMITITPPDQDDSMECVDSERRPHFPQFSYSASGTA
Experiment: KINOMEscan competition binding
Condition label: read-out: %Inh AKT1
Listed here are molecules together with their documented inhibition at 1 µM.

Take a look at these entries with their results.
> print(dat)
                                   molecule  endpoint.value
1  COc1cccc(OC)c1C(=O)Nc1cccc(-c2nn3ccccc3c2-c2ccnc(Nc3cccc(F)c3)n2)c1 [UNC10225310A]              4%
2  Cn1cc(-c2cnc(N)c3c(-c4ccc5c(c4)CCN5C(=O)Cc4ccccc4)csc23)cn1 [UNC10225012A]             14%
3  CS(=O)(=O)Cc1ccc(Nc2nccc(-c3c(-c4cccc(NC(=O)C5CCCCC5)c4)nn4ncccc34)n2)cc1 [UNC10225159A]             23%
4  O=c1cc(N2CCOCC2)nc2n(Cc3cccc(Cl)c3Cl)c(C3CC3)nn12 [UNC10225469A]             12%

Consider the record given below.
Specify inhibition at 1 µM for Cc1ccc(NC(=O)Nc2cccc(C(F)(F)F)c2)cc1 [UNC10225187A] and stop.
12%

----------
Study target: HIPK4 (Homo sapiens, UniProt Q8NE63)
Sequence (Q8NE63 1-616): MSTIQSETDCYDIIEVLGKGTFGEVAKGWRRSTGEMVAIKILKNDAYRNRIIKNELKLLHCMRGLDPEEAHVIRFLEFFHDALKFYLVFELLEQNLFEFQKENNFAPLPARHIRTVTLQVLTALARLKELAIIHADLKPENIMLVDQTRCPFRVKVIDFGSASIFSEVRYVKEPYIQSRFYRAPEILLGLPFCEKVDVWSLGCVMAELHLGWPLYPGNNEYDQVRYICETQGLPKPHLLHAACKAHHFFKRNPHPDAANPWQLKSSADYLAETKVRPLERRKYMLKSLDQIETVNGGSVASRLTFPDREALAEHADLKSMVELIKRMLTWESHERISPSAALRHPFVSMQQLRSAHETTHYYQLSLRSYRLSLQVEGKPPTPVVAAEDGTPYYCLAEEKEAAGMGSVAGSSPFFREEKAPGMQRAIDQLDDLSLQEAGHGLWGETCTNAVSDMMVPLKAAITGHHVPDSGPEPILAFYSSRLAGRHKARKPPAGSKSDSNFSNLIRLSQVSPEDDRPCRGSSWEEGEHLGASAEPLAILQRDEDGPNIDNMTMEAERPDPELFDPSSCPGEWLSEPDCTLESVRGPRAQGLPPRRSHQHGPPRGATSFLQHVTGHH
Experiment: KINOMEscan competition binding
Condition label: read-out: %Inh HIPK4
Attribute measured: inhibition at 1 µM (%)
Reply numerically in %, unit not repeated.

> print(dat)
                                   compound  endpoint.value
1  O=c1cc(N2CCOCC2)nc2n(Cc3cccc(Cl)c3Cl)c(C3CC3)nn12 [UNC10225469A]               0
2  Cc1ccc(NC(=O)Nc2cccc(C(F)(F)F)c2)cc1 [UNC10225187A]               0

Identify measured inhibition at 1 µM corresponding to COc1cccc(OC)c1C(=O)Nc1cccc(-c2nn3ccccc3c2-c2ccnc(Nc3cccc(F)c3)n2)c1 [UNC10225310A]
84

Find the measured inhibition at 1 µM of CS(=O)(=O)Cc1ccc(Nc2nccc(-c3c(-c4cccc(NC(=O)C5CCCCC5)c4)nn4ncccc34)n2)cc1 [UNC10225159A] and report it.
0

Give the reported value of inhibition at 1 µM for this record: Cn1cc(-c2cnc(N)c3c(-c4ccc5c(c4)CCN5C(=O)Cc4ccccc4)csc23)cn1 [UNC10225012A]
0

----------
Study target: GRK4 (Homo sapiens, UniProt P32298)
Sequence (P32298 whole entry): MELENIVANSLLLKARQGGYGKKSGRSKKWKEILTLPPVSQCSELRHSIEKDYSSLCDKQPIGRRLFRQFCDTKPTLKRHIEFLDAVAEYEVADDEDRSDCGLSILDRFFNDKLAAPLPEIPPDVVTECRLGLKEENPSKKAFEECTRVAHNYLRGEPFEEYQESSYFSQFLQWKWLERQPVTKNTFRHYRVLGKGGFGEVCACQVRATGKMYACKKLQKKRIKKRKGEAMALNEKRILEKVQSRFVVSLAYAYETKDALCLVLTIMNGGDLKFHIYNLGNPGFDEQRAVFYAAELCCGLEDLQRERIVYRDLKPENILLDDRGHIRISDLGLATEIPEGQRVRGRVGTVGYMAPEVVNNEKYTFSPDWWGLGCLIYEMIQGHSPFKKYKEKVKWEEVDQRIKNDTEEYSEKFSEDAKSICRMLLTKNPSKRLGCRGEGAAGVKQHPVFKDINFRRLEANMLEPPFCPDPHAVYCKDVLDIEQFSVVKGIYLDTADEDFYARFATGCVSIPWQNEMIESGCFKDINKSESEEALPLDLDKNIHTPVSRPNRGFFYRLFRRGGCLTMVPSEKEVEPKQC
Experiment: KINOMEscan competition binding
Condition label: read-out: %Inh GRK4
Attribute measured: inhibition at 1 µM (%)
Give the value, in units of %, as a plain number.

// worked examples, inhibition at 1 µM included
> print(dat)
                                   compound  attribute.measured  endpoint.value
1  CS(=O)(=O)Cc1ccc(Nc2nccc(-c3c(-c4cccc(NC(=O)C5CCCCC5)c4)nn4ncccc34)n2)cc1 [UNC10225159A]  inhibition at 1 µM               0
2  COc1cccc(OC)c1C(=O)Nc1cccc(-c2nn3ccccc3c2-c2ccnc(Nc3cccc(F)c3)n2)c1 [UNC10225310A]  inhibition at 1 µM               0
3  Cc1ccc(NC(=O)Nc2cccc(C(F)(F)F)c2)cc1 [UNC10225187A]  inhibition at 1 µM               0
4  Cn1cc(-c2cnc(N)c3c(-c4ccc5c(c4)CCN5C(=O)Cc4ccccc4)csc23)cn1 [UNC10225012A]  inhibition at 1 µM               7

Okay, next one:
For the compound O=c1cc(N2CCOCC2)nc2n(Cc3cccc(Cl)c3Cl)c(C3CC3)nn12 [UNC10225469A] , report inhibition at 1 µM.
0

----------
Study target: LTK (Homo sapiens, UniProt P29376)
Sequence (P29376 17-864): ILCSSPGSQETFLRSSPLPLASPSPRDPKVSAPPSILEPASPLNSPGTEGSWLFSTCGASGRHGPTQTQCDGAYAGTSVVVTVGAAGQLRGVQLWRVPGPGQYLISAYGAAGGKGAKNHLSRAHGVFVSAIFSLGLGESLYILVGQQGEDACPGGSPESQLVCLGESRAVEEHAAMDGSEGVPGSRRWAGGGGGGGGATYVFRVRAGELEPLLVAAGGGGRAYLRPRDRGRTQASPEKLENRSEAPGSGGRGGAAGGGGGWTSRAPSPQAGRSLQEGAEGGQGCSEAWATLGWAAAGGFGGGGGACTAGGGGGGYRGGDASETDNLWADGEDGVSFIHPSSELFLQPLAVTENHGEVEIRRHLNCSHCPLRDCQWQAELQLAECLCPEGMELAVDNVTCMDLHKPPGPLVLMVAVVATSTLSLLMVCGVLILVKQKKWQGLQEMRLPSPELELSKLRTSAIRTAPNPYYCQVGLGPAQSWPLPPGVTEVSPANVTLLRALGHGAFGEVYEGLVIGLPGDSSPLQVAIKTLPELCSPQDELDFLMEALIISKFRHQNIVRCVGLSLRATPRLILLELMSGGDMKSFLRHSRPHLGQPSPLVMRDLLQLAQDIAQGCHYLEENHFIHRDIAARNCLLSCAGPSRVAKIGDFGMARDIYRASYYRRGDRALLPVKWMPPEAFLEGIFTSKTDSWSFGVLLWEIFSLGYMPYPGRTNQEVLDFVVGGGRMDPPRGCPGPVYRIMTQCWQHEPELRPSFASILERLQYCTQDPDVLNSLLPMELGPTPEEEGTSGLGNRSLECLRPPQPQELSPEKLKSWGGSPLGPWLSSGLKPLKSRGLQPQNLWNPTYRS
Experiment: KINOMEscan competition binding
Condition label: read-out: %Inh LTK
Each entry below carries its reported inhibition at 1 µM.
Give the value, in units of %, as a plain number.

> print(dat)
                                   molecule  endpoint.value
1  COc1cccc(OC)c1C(=O)Nc1cccc(-c2nn3ccccc3c2-c2ccnc(Nc3cccc(F)c3)n2)c1 [UNC10225310A]              13

Return the recorded inhibition at 1 µM value; entry: CS(=O)(=O)Cc1ccc(Nc2nccc(-c3c(-c4cccc(NC(=O)C5CCCCC5)c4)nn4ncccc34)n2)cc1 [UNC10225159A]
0

Identify the reported inhibition at 1 µM for the following entry. O=c1cc(N2CCOCC2)nc2n(Cc3cccc(Cl)c3Cl)c(C3CC3)nn12 [UNC10225469A]
0

Consider the molecule Cn1cc(-c2cnc(N)c3c(-c4ccc5c(c4)CCN5C(=O)Cc4ccccc4)csc23)cn1 [UNC10225012A] and give its recorded inhibition at 1 µM.
0

Assign inhibition at 1 µM to the following record: Cc1ccc(NC(=O)Nc2cccc(C(F)(F)F)c2)cc1 [UNC10225187A]
0

Data provenance is paper PMC5540273.
